Experiment: Apparent permeability from basolateral to apical side in human Caco2 cells at 10 uM after 1 to 2 hrs by LC-MS analysis
Assay type: ADME, cell-based
Conditions: Caco-2
readout type: Papp B→A at 10 µM (×10⁻⁶ cm/s)

CS(=O)(=O)Nc1ccc([N+](=O)[O-])cc1Oc1cccc(I)c1    18

[a] CS(=O)(=O)Nc1ccc([N+](=O)[O-])cc1Oc1ccc(I)cc1
[b] CS(=O)(=O)Nc1ccc([N+](=O)[O-])cc1Oc1ccccc1I
Smaller Papp B→A at 10 µM value, a vs b ? Please identify the chosen entry by its label.
a
(a: 13.4 ×10⁻⁶ cm/s, b: 26.4 ×10⁻⁶ cm/s)

----------
Test: Apparent permeability from basolateral to apical side in human Caco2 cells at 1 uM after 1 to 2 hrs by LC-MS analysis
Assay type: ADME, cell-based
Details: Caco-2
readout type: Papp B→A at 1 µM (×10⁻⁶ cm/s)

CS(=O)(=O)Nc1ccc([N+](=O)[O-])cc1Oc1ccccc1I    21.9

[1] CS(=O)(=O)Nc1ccc([N+](=O)[O-])cc1Oc1ccc(I)cc1
[2] CS(=O)(=O)Nc1ccc([N+](=O)[O-])cc1Oc1cccc(I)c1
Lab note: record which item had the higher Papp B→A at 1 µM, 1 or 2 . Please identify the chosen entry by its label.
2

----------
Assay: Apparent permeability from apical to basolateral side in human Caco2 cells at 1 uM after 1 to 2 hrs by LC-MS analysis
Assay type: ADME, cell-based
Details: Caco-2
readout type: Papp A→B at 1 µM (×10⁻⁶ cm/s)

CS(=O)(=O)Nc1ccc([N+](=O)[O-])cc1Oc1ccc(I)cc1    40.5
CS(=O)(=O)Nc1ccc([N+](=O)[O-])cc1Oc1ccccc1I    30.1
CS(=O)(=O)Nc1ccc([N+](=O)[O-])cc1Oc1cccc(I)c1    31.4

----------
Endpoint: pIC50. System: Prostaglandin G/H synthase 2 (Ovis aries). Items follow.
Sequence (P79208 whole entry): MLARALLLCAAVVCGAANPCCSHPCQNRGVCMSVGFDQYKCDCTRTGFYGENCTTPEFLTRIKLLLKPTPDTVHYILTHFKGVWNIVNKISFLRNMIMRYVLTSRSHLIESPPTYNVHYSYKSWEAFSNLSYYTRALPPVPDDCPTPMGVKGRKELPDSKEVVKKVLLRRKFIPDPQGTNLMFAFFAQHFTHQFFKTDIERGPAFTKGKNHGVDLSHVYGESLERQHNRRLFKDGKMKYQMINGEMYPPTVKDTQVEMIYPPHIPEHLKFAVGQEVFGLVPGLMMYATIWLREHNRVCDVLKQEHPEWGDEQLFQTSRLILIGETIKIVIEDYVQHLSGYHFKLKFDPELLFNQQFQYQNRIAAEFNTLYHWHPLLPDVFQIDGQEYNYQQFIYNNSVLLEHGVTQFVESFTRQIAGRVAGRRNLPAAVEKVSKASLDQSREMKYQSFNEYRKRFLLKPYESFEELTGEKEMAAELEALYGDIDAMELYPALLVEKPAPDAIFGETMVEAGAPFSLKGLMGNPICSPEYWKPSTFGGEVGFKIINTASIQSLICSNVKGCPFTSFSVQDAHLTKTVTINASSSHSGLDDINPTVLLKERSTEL
pIC50: −log10 of the molar value.

Answered examples (2):
CS(=O)(=O)Nc1ccc([N+](=O)[O-])cc1Oc1ccccc1I    < 4.00
CS(=O)(=O)Nc1ccc([N+](=O)[O-])cc1Oc1ccc(I)cc1    6.33

// pIC50 (Prostaglandin G/H synthase 2 (Ovis aries)) for `CS(=O)(=O)Nc1ccc([N+](=O)[O-])cc1Oc1cccc(I)c1` = < 4.00

----------
Assay: Efflux ratio of permeability from basolateral to apical side over apical to basolateral side in human Caco2 cells at 10 uM after 1 to 2 hrs by LC-MS analysis
Type: ADME, cell-based
Settings: Caco-2
readout type: efflux ratio at 10 µM

CS(=O)(=O)Nc1ccc([N+](=O)[O-])cc1Oc1ccc(I)cc1    0.78
CS(=O)(=O)Nc1ccc([N+](=O)[O-])cc1Oc1cccc(I)c1    0.67
CS(=O)(=O)Nc1ccc([N+](=O)[O-])cc1Oc1ccccc1I    0.78
